# METHOD_DESCRIPTION: Quantitative High-Throughput drug screen in 47 multiple myeloma cell lines against the NCATS MIPE library collection: XG1_PLB cell viability assay (AID 1919866); note: nearly all actives have a fitted effect of over 35% in size
# PARTICULARS: CellTiter-Glo ATP, 48 h; series mostly up to 45.8 µM
Inconclusive results are not listed. The source made the active and inactive calls. Calls come from the whole dose curve; as a rule, active = well fitted cell-killing curve with a large enough effect; inconclusive = small, poorly fitted or top-dose-only effect, or effect the other way; inactive = no such curve, though single readings can be large or run the other way.
Give one outcome, nothing more. List: YES (active), NO (inactive)

{"STRUCTURE_SMILES_STRING": "O=C(O)c1cc(O)c2c(c1)C(=O)c1cccc(O)c1C2=O", "CATEGORY": "NO"}
{"STRUCTURE_SMILES_STRING": "CC(=O)Nc1ccc([C@H](C)C(=O)Nc2ncc(C(C)C)s2)cc1", "CATEGORY": "YES"}

# input Outcome logged for `Cc1ccn(-c2ccc(-c3ncco3)cc2)c(=O)c1-c1ccc2nc(N)ncc2c1` in this assay:
# output YES

# input Outcome logged for `CC(C)(C)COc1ccc(-n2cc(C(=O)O)cn2)cc1C#N` in this assay:
# output NO

# input Outcome logged for `O=C(CCCCCCC(=O)Nc1ccccc1)NO` in this assay:
# output YES

# input Outcome logged for `CN[C@@H](C)C(=O)N[C@H]1CN(C(=O)CC(C)C)CC[C@H]2CC[C@@H](C(=O)NC(c3ccccc3)c3ccccc3)N2C1=O` in this assay:
# output YES

# input Outcome logged for `Nc1ncnc2c1ncn2[C@@H]1O[C@@H](CO)[C@H](O)[C@H]1O` in this assay:
# output NO

# input Outcome logged for `c1ccc2c(Cc3c[nH]c4ccccc34)c[nH]c2c1` in this assay:
# output YES
